Data origin: paper PMC4896225

QUANTITY_MEASURED: IC50

Query :: Please tell me: IC50 of C/C(=N\NC(=N)N)c1cc(NC(=O)CCCCCCCCC(=O)Nc2cc(/C(C)=N/NC(=N)N)cc(/C(C)=N/NC(=N)N)c2)cc(/C(C)=N/NC(=N)N)c1 [Semapimod] , system gp96 (Canis lupus, UniProt P41148)?
Result :: ~300 nM
